system: OVCAR-3 ovarian; assay: NCI tumour cell line growth inhibition, 48 h
testReadout: TGI

{"compound": "O=C1CCC(O)=C1N=Nc1cc(Cl)cc(Cl)c1", "recordedValue": "98.2 µM"}
{"compound": "CC(=O)c1c(P(=O)(OC(C)C)OC(C)C)nn(-c2ccc([N+](=O)[O-])cc2)c1C", "recordedValue": "> 100 µM"}
{"compound": "COc1ccc(S(=O)(=O)Nc2cc(/C=C\\c3cc(OC)c(OC)c(OC)c3)cc(OC)c2OC)cc1", "recordedValue": "0.0977 µM"}
{"compound": "C/C(O)=C/c1nc2ccccc2[nH]1", "recordedValue": "> 100 µM"}
{"compound": "COc1ccc(/C=C2/N=C(N/N=C\\C(O)C(O)C(O)C(O)CO)NC2=O)cc1 (stereo not given)", "recordedValue": "> 100 µM"}
{"compound": "C=CC(=O)NC(O)(C(=O)OCC)C(F)(F)F (stereo not given)", "recordedValue": "> 100 µM"}
{"compound": "Cc1cc(C)c(OC(=O)Nc2cccc3ccccc23)c(-c2ccccc2)c1", "recordedValue": "> 100 µM"}
{"compound": "COc1cccc(NC(=O)CC(=O)N2NC(c3ccccc3)C(N=Nc3cccc(C(=O)O)c3)C2=O)c1 (stereo not given)", "recordedValue": "> 100 µM"}
{"compound": "O=C(C[Si](CC(=O)c1cccc(C(F)(F)F)c1)CC(=O)c1cccc(C(F)(F)F)c1)c1cccc(C(F)(F)F)c1", "recordedValue": "10.5 µM"}
{"compound": "Nc1nc(N)c2cc(CNc3ccc(C(=O)NC(CC(=O)O)C(=O)O)cc3)ccc2n1 (stereo not given)", "recordedValue": "> 100 µM"}

###

system: SNB-75 CNS; experiment: NCI tumour cell line growth inhibition, 48 h
testReadout: TGI (µM)

{"compound": "Cc1cccc(C)c1NC(=O)C(=O)C(C#N)c1ccccc1Cl (stereo unspecified)", "testReadout": "TGI", "units": "µM", "comparisonOperator": ">", "recordedValue": 100}
{"compound": "CN(C)c1ccc(/C=C2\\Oc3ccccc3C2=O)cc1", "testReadout": "TGI", "units": "µM", "comparisonOperator": ">", "recordedValue": 100}
{"compound": "COc1ccc2nc3cc(Cl)ccc3c(NCCCCCN3CCCCC3)c2c1", "testReadout": "TGI", "units": "µM", "comparisonOperator": "=", "recordedValue": 2.56}
{"compound": "O=C(N/N=C\\c1c(O)ccc2ccccc12)C1CC1", "testReadout": "TGI", "units": "µM", "comparisonOperator": "=", "recordedValue": 91.1}
{"compound": "O=[N+]([O-])/C(C(Cl)=C(Cl)Cl)=C(\\Nc1cccc2ccccc12)Sc1ccccc1", "testReadout": "TGI", "units": "µM", "comparisonOperator": "=", "recordedValue": 43.4}
{"compound": "COC(=O)C(N)CSC(c1ccccc1)(c1ccccc1)c1ccccc1 (stereo unspecified)", "testReadout": "TGI", "units": "µM", "comparisonOperator": "=", "recordedValue": 41.6}

###

test system: SNB-19 CNS; experiment: NCI tumour cell line growth inhibition, 48 h; in the data active = GI50 below about 0.43 µM; inactive = the rest
Possible outcomes: class 1 = active, class 0 = inactive

{"molecule": "O=C(N/N=C\\c1c(O)ccc2ccccc12)C1CC1", "testedOn": "SNB-19 CNS", "answerLabel": "class 0"}
{"molecule": "FC(F)(F)c1ccc(-c2cncn2-c2ccccc2)cc1", "testedOn": "SNB-19 CNS", "answerLabel": "class 0"}
{"molecule": "Nc1ccn(C2OC(CO)C3[O][Sn]([c]4ccccc4)([c]4ccccc4)[O]C32)c(=O)n1 (stereo not given)", "testedOn": "SNB-19 CNS", "answerLabel": "class 0"}
{"molecule": "Cn1cc(C2=C(c3cn(CCSC(=N)N)c4ccccc34)C(=O)NC2=O)c2ccccc21", "testedOn": "SNB-19 CNS", "answerLabel": "class 0"}
{"molecule": "CC(=O)[CH-]C(C)=O.CC(=O)[CH-]C(C)=O.[CH2-]CCCCCCC.[CH2-]CCCCCCC.[Sn+4]", "testedOn": "SNB-19 CNS", "answerLabel": "class 0"}
{"molecule": "O=C(O)CCCn1c(SCc2c(Cl)cccc2Cl)nc2ccsc2c1=O", "testedOn": "SNB-19 CNS", "answerLabel": "class 0"}
{"molecule": "Cc1cc(Nc2cccc(F)c2)nc(NCc2ccccc2)n1", "testedOn": "SNB-19 CNS", "answerLabel": "class 0"}
{"molecule": "Cc1nc2cc(-n3c(-c4ccc(F)cc4)nc4ccccc4c3=O)ccc2n1Cc1ccccc1", "testedOn": "SNB-19 CNS", "answerLabel": "class 0"}
{"molecule": "CN1CCN(c2ccc3nc(-c4c5cccccc-5[nH]c4=O)[nH]c3c2)CC1", "testedOn": "SNB-19 CNS", "answerLabel": "class 0"}
{"molecule": "CC(=O)c1cc2c(c(O)c1C)C(=O)C(=O)c1c(O)cccc1-2", "testedOn": "SNB-19 CNS", "answerLabel": "class 1"}

###

system: SF-268 CNS; test: NCI tumour cell line growth inhibition, 48 h
testReadout: TGI

{"molecule": "S=C1NCN2CCN(CC2)CNC(=S)C(=S)NCN2CCN(CC2)CNC1=S", "recordedValue": "> 100 µM"}
{"molecule": "NNC1=N/C(=C\\c2ccccc2O)C(=O)N1", "recordedValue": "> 100 µM"}
{"molecule": "O=C(O)CCCn1c(SCc2c(Cl)cccc2Cl)nc2ccsc2c1=O", "recordedValue": "> 100 µM"}
{"molecule": "O=C(CCN1CCCC1)CC(c1ccccc1)c1c(O)c2ccccc2oc1=O (centres undefined)", "recordedValue": "> 100 µM"}
{"molecule": "CC(=O)[CH-]C(C)=O.CC(=O)[CH-]C(C)=O.[CH2-]CCCCCCC.[CH2-]CCCCCCC.[Sn+4]", "recordedValue": "57.9 µM"}
{"molecule": "COc1c2c(cc3nc4ccccc4nc13)CC[C@H](NC(C)=O)c1cc(=O)c(SC)ccc1-2", "recordedValue": "> 56.5 µM"}
{"molecule": "CCN(CC)CCOc1ccc(/C=C2\\CC3C4CC=C5C[C@@H](N6CCCC6)CC[C@]5(C)C4CC[C@]3(C)[C@H]2OC(C)=O)cc1OC (some centres undefined)", "recordedValue": "4.56 µM"}
{"molecule": "COC(=O)CC1C(C)(C)C(=O)C2CC3=C4CC(=O)OC(c5ccoc5)C4(C)CCC3C1(C)C2=O (centres undefined)", "recordedValue": "> 100 µM"}
{"molecule": "c1ccc2cc(CN3CCC(C4CCN(Cc5ccc6ccccc6c5)CC4)CC3)ccc2c1", "recordedValue": "25.8 µM"}

###

tested on: DU-145 prostate; assay: NCI tumour cell line growth inhibition, 48 h

{"compound": "O=C(OCCN1CCCCCC1)C(c1ccsc1)C1CCCCC1 (configuration not stated)", "comparisonOperator": "=", "TGI, µM": 33.2}
{"compound": "CCOC(=O)c1cc(NC(=O)N(CCC#N)CCN(C(=O)N[C@@H](Cc2ccccc2)C(=O)N[C@@H](CC(C)C)C(=O)NC)c2ccccc2)ccc1OC", "comparisonOperator": ">", "TGI, µM": 100}
{"compound": "COc1ccc(/C=C/C(=O)c2cccc(B(O)O)c2)cc1O", "comparisonOperator": "=", "TGI, µM": 7.88}
{"compound": "CC1(C)C(OC(=O)c2ccccc2)C[C@]23CCC[C@](C)(C[C@@H](O)C12)C3 (some centres not stated)", "comparisonOperator": "=", "TGI, µM": 52.4}
{"compound": "CN(C)c1ccc(/C=C2\\Oc3ccccc3C2=O)cc1", "comparisonOperator": ">", "TGI, µM": 100}
{"compound": "CO[C@H](C(=O)[C@@H](O)[C@@H](C)O)[C@@H]1Cc2cc3cc(O[C@H]4C[C@@H](O[C@H]5C[C@@H](O)[C@H](O)C(C)O5)[C@H](O)C(C)(O)O4)cc(O)c3c(O)c2C(=O)[C@H]1O[C@H]1C[C@@H](O[C@H]2C[C@@H](O[C@H]3C[C@@H](OC)[C@H](O)C(C)O3)[C@@H](O)C(C)O2)[C@H](O)C(C)O1 (some centres not stated)", "comparisonOperator": ">", "TGI, µM": 16.8}
{"compound": "COC(=O)CC1C(C)(C)C(=O)C2CC3=C4CC(=O)OC(c5ccoc5)C4(C)CCC3C1(C)C2=O (configuration not stated)", "comparisonOperator": ">", "TGI, µM": 100}

###

test system: UACC-62 melanoma; assay: NCI tumour cell line growth inhibition, 48 h
testReadout: TGI

{"molecule": "CN(C(=O)CC(=O)CP(=O)(c1ccccc1)c1ccccc1)c1ccccc1", "recordedValue": "> 100 µM"}
{"molecule": "Clc1ccc(C2c3ccccc3-c3nccn32)c(Cl)c1 (stereo unspecified)", "recordedValue": "23 µM"}
{"molecule": "CC(C)C(=O)N1C(=O)O[C@@H](c2ccccc2)[C@H]1C", "recordedValue": "> 100 µM"}
{"molecule": "COc1ccc(/C(=N\\N=C(N)N)C(c2ccc(OC)cc2)C2OC(=O)c3ccccc32)cc1 (stereo unspecified)", "recordedValue": "> 100 µM"}
{"molecule": "Cn1c(=O)c2c(nc3sc4nc5ccccc5nc4n32)n(C)c1=O", "recordedValue": "> 100 µM"}
{"molecule": "Cc1cccc(C)c1NC(=O)/C(Cc1nc2ccc([N+](=O)[O-])cc2[nH]c1=O)=N\\NC(N)=O", "recordedValue": "> 100 µM"}
{"molecule": "CN(C)c1ccc(/C=C2\\Oc3ccccc3C2=O)cc1", "recordedValue": "> 100 µM"}
{"molecule": "COc1ccc(C2C=C(c3ccccc3)Nc3nnnn32)cc1 (stereo unspecified)", "recordedValue": "> 100 µM"}
{"molecule": "CN(C)CCCN1c2ccccc2CCc2cccc([N+](=O)[O-])c21", "recordedValue": "36.2 µM"}
{"molecule": "CCc1n[nH]c(=O)n1NC(=O)CCCC(=O)O", "recordedValue": "> 100 µM"}
{"molecule": "O=C(CON1C(=O)c2ccccc2C1=O)c1ccccc1", "recordedValue": "> 100 µM"}

Cited source: PubChem BioAssay (NCI)
